Cited source: patent US20210188980A1

Biological target: T1, human PD-1 ECD/Fc fusion protein (human)
T1 construct: also called huPD-1/Fc; HuPD-1 ECD/Fc
Assay: RBA ELISA on huPD-1/Fc; competitor biotin-huPD-L1/Fc
recorded_endpoint: pIC50
Give bare numbers, as −log10 of the molar value.

[[record]]
binder = "mAb709 (antibody, V domains shown, murine hybridoma anti-PD-1 mAb) VH: EVKLVESGGGLVKPGGSLKLSCAASGFTFSFYTMSWVRQTPEKRLEWVATISGGGRDTYYPDSVKGRFTISRDNAKNTLYLHMSSLRSEDTALYYCAGQGGNYLFAYWGQGTLVTVSA VL: DIVMTQSHKFMSTSVGDSVTITCKASQDVNTVVAWYQQKPGQSLKVLISWASTRHTGVPARFTGSGSGTDYTLTISSVQAEDLALYYCQQHYTTPYTFGGGTQLEIK"
reading = 9.10


// each listed binder needs a value for pIC50
1. mAb714 (antibody, V domains shown, murine hybridoma anti-PD-1 mAb) VH: EVHLQQSGPELVKPGASVKIFCKASGYTFTDNNVEWVKQSHGKSLEWIGDINPNNGDTLYSQYFKDKATLTVDKSSTTAYMELRSLTSEDTGLYYCARGKSDQFDYWGQGTTLTVSS VL: DIQMTQSPASQSASLGESVTITCLASQTIGTWLAWYQQKPGKSPQLLIYAATSLADGVPSRFSGSGSGTKFSFKISSLQGEDFVSYYCQQLYSSPWTFGGGTKLEIK
2. mAb701 (antibody, V domains shown, murine hybridoma anti-PD-1 mAb) VH: EVLLVESGGGLVKPGGSLKLSCAASGFTFSSYMMSWIRQTPERRLEWVASMSGGGRDTYYPDSVKGRFTISRDNAKNTLYLQMSSLRSEDTALYYCARRGTYAMDYWGQGTSVTVSS VL: DIQMTQSPASQSASLGESVTITCLASQTIGTWLTWYQQKPGKSPQLLIYAATSLADGVPSRFSGSGSGTKFSFKISSLQAEDFVSYYCQQLYSTPWTFGGGTKLEIK
3. mAb703 (antibody, V domains shown, murine hybridoma anti-PD-1 mAb) VH: DVQLQESGPGLVKPSQSLSLTCSVTGYSITTGYYWNWIRQFPGNKLEWMGYMSYDGNNNYNPSLKNRISITRDTSKNQFLLRLNSVTTEDTATYFCARDRGTTILGGTMDYWGQGTSVTVS VL: SIVMTQTPKFLFVSAGDRVTIACKASQSVSNDVAWYQQKPGQSPKLLIYYAFYRYTGVPDRFTGSGYGTDFTFTISTVQAEDLAVYFCQQDYSSPWTFGGGTKLEIK

Result ::
1: 8.53; 2: 8.27; 3: 8.52
